Experiment: clinical
Details: human, in vivo, plasma Cmax, Mean ± S.D.
PROPERTY: Cmax

COC(=O)c1ccccc1O [Methyl salicylate] : 21.1 ng/mL

Query molecule follows.
[in] Look up Cmax for this molecule: O=C(O)c1ccccc1O
[out] 1290 ng/mL

###

Assay: clinical
Conditions: human, in vivo, plasma AUC0-24, Maximum value
Assignment: determine reported AUC(0-t) for the given compounds.
Answers are plain numbers, in ng·h/mL.

COC(=O)c1ccccc1O [Methyl salicylate] : 139

Query compound follows.
[in] Look up AUC(0-t) for this compound: O=C(O)c1ccccc1O
[out] 24700

###

Assay: clinical
Settings: human, in vivo, plasma Cmax, Maximum value
Method: Blood was collected over time. […] Methyl salicylate and 1-menthol are contained in large amounts in daily necessities. Therefore, the use of such daily necessities was avoided before and during the application. The plasma concentrations of the methyl salicylate, its metabolite salicylic acid, and the 1-menthol were separately measured. […] The Cmax and AUC0-24 were calculated according to the standard methods. […]
PROPERTY: Cmax (ng/mL)
Give bare numbers, in ng/mL.

O=C(O)c1ccccc1O : 4100

Query molecule follows.
[in] Look up Cmax for this molecule: COC(=O)c1ccccc1O [Methyl salicylate]
[out] 109

###

Assignment: determine reported AUC(0-t) for the given compounds.
Experiment: clinical
Conditions: human, in vivo, plasma AUC0-24, Minimum value
Numbers only, in ng·h/mL.

O=C(O)c1ccccc1O [Salicylic acid] : 3460

Query compound follows.
[in] Look up AUC(0-t) for this compound: COC(=O)c1ccccc1O [Methyl salicylate]
[out] 3.7
